Numbers sourced from patent US20100179093A1.

# pEC50 per record follows
Target: hNPY2R (Homo sapiens, UniProt P49146)
Sequence (P49146 1-381): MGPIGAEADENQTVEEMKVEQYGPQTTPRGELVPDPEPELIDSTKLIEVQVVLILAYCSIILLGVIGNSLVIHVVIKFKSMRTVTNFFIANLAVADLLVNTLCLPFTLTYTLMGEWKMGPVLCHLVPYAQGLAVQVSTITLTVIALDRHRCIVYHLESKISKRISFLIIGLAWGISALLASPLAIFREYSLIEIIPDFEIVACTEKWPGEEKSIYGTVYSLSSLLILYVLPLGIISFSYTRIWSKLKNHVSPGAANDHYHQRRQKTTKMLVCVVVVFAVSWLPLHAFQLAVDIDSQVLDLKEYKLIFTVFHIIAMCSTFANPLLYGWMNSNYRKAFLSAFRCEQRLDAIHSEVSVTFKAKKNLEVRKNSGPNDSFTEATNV
Experiment: CaFlux Assay (FLIPR), Y2R
Type: cell-based
Set-up: expressed in transfected cells; host or cells: HEK-293 stably expressing G protein chimera Gaqi9
Keep it numeric: pEC50 is minus log10 of the concentration in mol/L.

Field: example entries. Status: answers known.
- CCCCCCCC(=O)NCCCC[C@H](NC(=O)[C@@H](NC(C)=O)[C@@H](C)CC)C(=O)N1CCN(c2ccc3ncn(CC(=O)N[C@@H](CCCNC(=N)N)C(=O)N[C@@H](Cc4c[nH]cn4)C(=O)N[C@@H](Cc4ccc(O)cc4)C(=O)N[C@@H](CC(C)C)C(=O)N[C@@H](CC(N)=O)C(=O)N[C@@H](Cc4c[nH]c5ccccc45)C(=O)N[C@H](C(=O)N[C@H](C(=O)N[C@@H](CCCNC(=N)N)C(=O)N[C@@H](CCC(N)=O)C(=O)N(C)[C@@H](CCCNC(=N)N)C(=O)N[C@@H](Cc4ccc(O)cc4)C(N)=O)[C@@H](C)O)C(C)C)c(=O)c3c2)CC1: 8.84
- CCCC(=O)NCCCC[C@H](NC(=O)[C@@H](NC(C)=O)[C@@H](C)CC)C(=O)N1CCN(c2ccc3ncn(CC(=O)N[C@@H](CCCNC(=N)N)C(=O)N[C@@H](Cc4c[nH]cn4)C(=O)N[C@@H](Cc4ccc(O)cc4)C(=O)N[C@@H](CC(C)C)C(=O)N[C@@H](CC(N)=O)C(=O)N[C@@H](Cc4c[nH]c5ccccc45)C(=O)N[C@H](C(=O)N[C@H](C(=O)N[C@@H](CCCNC(=N)N)C(=O)N[C@@H](CCC(N)=O)C(=O)N(C)[C@@H](CCCNC(=N)N)C(=O)N[C@@H](Cc4ccc(O)cc4)C(N)=O)[C@@H](C)O)C(C)C)c(=O)c3c2)CC1: 9.74

Give pEC50 for `CCCCCCCCCCCCCCCC(=O)NCCCC[C@H](NC(=O)[C@@H](N)[C@@H](C)CC)C(=O)N1CCN(c2ccc3ncn(CC(=O)N[C@@H](CCCNC(=N)N)C(=O)N[C@@H](Cc4c[nH]cn4)C(=O)N[C@@H](Cc4ccc(O)cc4)C(=O)N[C@@H](CC(C)C)C(=O)N[C@@H](CC(N)=O)C(=O)N[C@@H](Cc4c[nH]c5ccccc45)C(=O)N[C@H](C(=O)N[C@H](C(=O)N[C@@H](CCCNC(=N)N)C(=O)N[C@@H](CCC(N)=O)C(=O)N(C)[C@@H](CCCNC(=N)N)C(=O)N[C@@H](Cc4ccc(O)cc4)C(N)=O)[C@@H](C)O)C(C)C)c(=O)c3c2)CC1`
9.14
